tested on: MDA-MB-435 melanoma; assay: NCI-60 one-dose screen, 48 h (100 = growth as untreated, 0 = no growth, -100 = all killed); conditions: 10 µM unless noted
About 83,000 compounds went through this panel and 20% of them were active in at least one assay; those are over-represented in the sample as a whole.
Is growth at least 80%? Then Yes. If not, No.

-- ask Please tell me: is the compound COc1cc(C2C3=C(COC3=O)N(CCO)c3cc4c(cc32)CCC4)cc(OC)c1OC (stereo unspecified) at or over 80% in terms of growth?
-- reply No

-- ask Please tell me: is the compound COc1cc(NC(C)CCCNC(=O)CCC(=O)NCCCNCCCCCCCCNCCCNC(=O)CCC(=O)NCCCC(C)Nc2cc(OC)cc3cccnc23)c2ncccc2c1 (stereo unspecified) at or over 80% in terms of growth?
-- reply No

-- ask Please tell me: is the compound CN[C@@H](C)C(=O)N[C@H]1CCS[C@H]2CC(C)(C)[C@@H](C(=O)N[C@H]3c4ccccc4C[C@H]3OCC#CC#CCO[C@@H]3Cc4ccccc4[C@@H]3NC(=O)[C@H]3N4C(=O)[C@@H](NC(=O)[C@H](C)NC)CCS[C@H]4CC3(C)C)N2C1=O at or over 80% in terms of growth?
-- reply No

Source of measurements: PubChem BioAssay (NCI)
